Assay: NCI Yeast Anticancer Drug Screen. Data for the mlh1 rad18 strain (AID 175)
Details: S. cerevisiae mlh1 rad18 strain growth inhibition; at 50.0 µM; active compounds read high
About 79,000 compounds went through this panel and 15% of them were active in at least one assay; those are over-represented in the sample as a whole.
measured parameter: growth inhibition (%)
The response must be a number in % with no trailing unit.

Give its growth inhibition value. Item: O=Cc1ccc2ccccc2c1
30.8

Report growth inhibition for CCOC(=O)C1CSCN1C(C)=O (stereo unspecified) please.
-21.9

Consider the compound c1ccc(-c2n[nH]c3c2CCCc2ccccc2-3)cc1 and give its measured growth inhibition.
25.4

What value of growth inhibition has been reported for the following compound? CN(C)C(=O)Sc1ccc(O)cc1
-2.8

I would be grateful if you could share the reported growth inhibition for CCOC(=O)CC(C)C(C(=O)OCC)C(=O)OCC (stereo unspecified) .
14

Please report the recorded growth inhibition for CCC(CO)NC(=O)/C=C/c1ccccc1Cl (stereo unspecified) .
10.5

So what's the measured growth inhibition for this one? CC(=O)N1CCCCC1C/C(C)=N/O (stereo unspecified)
3.3

Bench note: what growth inhibition did COc1ccc2nc(-c3ccccc3)c(=O)[nH]c2c1 show?
10.5

Dear colleague, I am looking for the recorded growth inhibition of the following compound: Cc1nc2ccc(S(=O)(=O)Nc3ccc(Cl)cc3)cc2c(=O)n1NC(=O)CNc1ccc(Cl)cc1
24.2

Quick one: growth inhibition for CCCCNC(=S)/N=C/c1c(O)c2ccccc2[nH]c1=O ?
-41

Recorded growth inhibition of COc1ccc2ccc3ccc(OC)nc3c2n1 , please.
16.1

What does the data say about its growth inhibition? Entry: Nc1ccc(N=Nc2ccccc2)c(N)c1
28.6

# input compound: C=C(C)C(=O)OC1C/C(CO)=C\C(O)C/C(C)=C/C2OC(=O)C(=C)C21 (stereo unspecified) ; wanted: its growth inhibition
-46.7

Tell me the measured growth inhibition of O=S(=O)(NC1c2ccccc2Oc2ccccc21)c1ccc2ccccc2c1 , please.
39.7

Can you look up the measured growth inhibition of O=C1CCSc2c(cnc3ccccc23)N1 for me?
-46.8

# get_value(readout='growth inhibition', item= O=C(O)c1c(Br)c(Br)c(Br)c(Br)c1C(=O)Nc1ccc([N+](=O)[O-])cc1 )
-1.05

Look up growth inhibition for this compound: O=[N+]([O-])C1C2CCC(C2)C1c1ccccc1 (stereo unspecified)
-0.2

Would you kindly share the measured growth inhibition for CCC(=O)C(CC)c1ccccc1OC (stereo unspecified) ?
15

Need growth inhibition of Cc1ncc(CO)c(/C=N/NC(N)=S)c1O , thanks.
13.6

# lookup: growth inhibition of CC(O)CN1CCN(CC(C)O)C(C)C1 (stereo unspecified)
4.75

Consider the compound shown here: c1ccc(OCCCCN2CCNCC2)cc1 What is its recorded growth inhibition?
-10.2

What value of growth inhibition has been reported for the following compound? O=c1[nH]c(-c2ccccc2)nc2[nH]ncc12
6.15

Give the measured growth inhibition of CCCNC(=O)OCC#CCOC(=O)NCCC .
-6.1

Entry CCOc1ccc(NC(=O)C(=O)C(C(=O)c2ccc3ccccc3c2)C2OC(=O)c3ccccc32)cc1 (stereo unspecified) : reported growth inhibition = ?
6.8

Form field: reported growth inhibition of COc1ccc2nc3cc(Cl)ccc3c(NCCC3CCCN4CCCCC34)c2c1 (stereo unspecified)
33

State the recorded growth inhibition for this entry: CN(C)S(=O)(=O)C1(c2ccccc2)CCCC1
1.9
